- experimental_target: APOL1 G1 (Homo sapiens, UniProt O14791, I384M/S342G)
- Sequence (O14791 28-398 S342G/I384M): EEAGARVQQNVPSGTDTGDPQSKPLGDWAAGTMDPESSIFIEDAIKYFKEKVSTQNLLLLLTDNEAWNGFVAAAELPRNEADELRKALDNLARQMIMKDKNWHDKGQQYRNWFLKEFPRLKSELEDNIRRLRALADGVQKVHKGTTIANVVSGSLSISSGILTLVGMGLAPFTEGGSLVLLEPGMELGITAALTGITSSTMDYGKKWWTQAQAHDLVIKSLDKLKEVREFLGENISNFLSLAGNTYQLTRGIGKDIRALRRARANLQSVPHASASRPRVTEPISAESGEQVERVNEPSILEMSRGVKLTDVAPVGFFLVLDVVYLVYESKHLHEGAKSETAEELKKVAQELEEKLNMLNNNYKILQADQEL
- assay_procedure: MultiTox-Fluor Multiplex Cytotoxicity Assay, tet-inducible APOL1 G1 T-REx-HEK293 cells
- Type: cell-based
- Design: expressed in transfected cells; host or cells: T-REx HEK293, clone G1 DC3.25 (pAAVS1-Puro-APOL1 G1)
- assay_conditions: Multi-Tox Assay; APOL1 variant (G0/G1/G2) not stated in Table 46; read-out: Multi-Tox Assay IC90
Recorded IC90 by entry

# compound, IC90
rows = [
    ("C[C@H]1C[C@@]2(C[C@@H](c3cn(CCO)nn3)N1)OCC(F)(F)c1cc(Cl)sc12 [Compound 361]", "50 to 500 nM"),
    ("Cn1cc([C@@H]2C[C@]3(C[C@H](c4ccccc4)N2)OC[C@@H](O)c2cc(Cl)sc23)nn1 [Compound 387]", "> 500 nM"),
    ("[2H]C1([2H])O[C@@]2(C[C@@H](c3cn(C)nn3)N[C@@H](C)C2)c2sc(Cl)cc2[C@]1([2H])O [Compound 385]", "< 50 nM"),
    ("CC(=O)NC1([C@@H]2C[C@]3(C[C@H](C)N2)OCCc2cc(Cl)sc23)CC1 [Compound 379]", "> 500 nM"),
    ("COc1ccc(Cn2cc([C@@H]3C[C@]4(C[C@H](C)N3)OCC(F)(F)c3cc(Cl)sc34)nn2)cc1F [Compound 362]", "50 to 500 nM"),
    ("Cn1cc([C@@H]2C[C@]3(C[C@H](C4CC4)N2)OCCc2cc(C(F)(F)F)sc23)nn1 [Compound 383]", "< 50 nM"),
    ("C[C@H]1C[C@@]2(C[C@@H](c3cn(Cc4ccc5nc(O)[nH]c5c4)nn3)N1)OCC(F)(F)c1cc(Cl)sc12 [Compound 366]", "> 500 nM"),
    ("Cn1cc([C@@H]2C[C@]3(C[C@H](C4CC4)N2)OCCc2cc(Cl)sc23)nn1 [Compound 381]", "< 50 nM"),
    ("C[C@H]1C[C@@]2(C[C@@H](c3cn(C)nn3)N1)OCC(C)(O)c1cc(C(F)(F)F)sc12 (stereo partly drawn) [Compound 384]", "< 50 nM"),
    ("C[C@H]1C[C@@]2(C[C@@H](c3cn(CC#N)nn3)N1)OCC(F)(F)c1cc(Cl)sc12 [Compound 369]", "> 500 nM"),
    ("CC(CO)Cn1cc([C@@H]2C[C@]3(C[C@H](C)N2)OCC(F)(F)c2cc(Cl)sc23)nn1 (stereo partly drawn) [Compound 370]", "50 to 500 nM"),
    ("C[C@H]1C[C@@]2(C[C@@H](c3cn(C[C@@H](O)CO)nn3)N1)OCC(F)(F)c1cc(Cl)sc12 [Compound 363]", "50 to 500 nM"),
    ("C[C@H]1C[C@@]2(C[C@@H](C3(CO)CC3)N1)OCCc1cc(Cl)sc12 [Compound 380]", "50 to 500 nM"),
    ("C[C@H]1C[C@@]2(C[C@@H](c3cn(Cc4cncs4)nn3)N1)OCC(F)(F)c1cc(Cl)sc12 [Compound 365]", "50 to 500 nM"),
    ("C[C@H]1C[C@@]2(C[C@@H](c3cn(CCC(C)(C)O)nn3)N1)OCC(F)(F)c1cc(Cl)sc12 [Compound 367]", "< 50 nM"),
]

---

- experimental_target: APOL1 G1 (Homo sapiens, UniProt O14791, I384M/S342G)
- assay_procedure: MultiTox-Fluor Multiplex Cytotoxicity Assay, tet-inducible APOL1 G1 T-REx-HEK293 cells
- Type: cell-based
- Parameters: expressed in transfected cells; host or cells: T-REx HEK293, clone G1 DC3.25 (pAAVS1-Puro-APOL1 G1)
- assay_conditions: HEK293, Multi-Tox Assay; APOL1 variant (G0/G1/G2) of the HEK293 cells not given; read-out: Multi-Tox Assay IC90

# compound, experimental_target, IC90
records = [
    ("C[C@H]1C[C@@]2(C[C@@H](c3cn(Cc4ccccn4)nn3)N1)OCC(F)(F)c1cc(Cl)sc12", "APOL1 G1 (Homo sapiens, UniProt O14791, I384M/S342G)", "50 to 500 nM"),
    ("C[C@H]1C[C@@]2(C[C@@H](c3cnn(C)c3)N1)OCCc1cc(Cl)sc12", "APOL1 G1 (Homo sapiens, UniProt O14791, I384M/S342G)", "< 50 nM"),
    ("CNC(=O)c1ccc(C2CC3(CC(C)N2)OCCc2cc(Cl)sc23)cc1 (stereo not shown)", "APOL1 G1 (Homo sapiens, UniProt O14791, I384M/S342G)", "< 50 nM"),
    ("CCc1cc2c(s1)C1(CC(C)NC(c3cn(C)nn3)C1)OCC2 (single isomer, unassigned)", "APOL1 G1 (Homo sapiens, UniProt O14791, I384M/S342G)", "< 50 nM"),
    ("C[C@@H]1CC2(C[C@H](C)N1)OCCc1cc(C3CCCCC3)sc12 (single isomer, unassigned)", "APOL1 G1 (Homo sapiens, UniProt O14791, I384M/S342G)", "> 500 nM"),
    ("COc1cccc(Cn2cc([C@@H]3C[C@]4(C[C@H](C)N3)OCC(F)(F)c3cc(Cl)sc34)nn2)c1", "APOL1 G1 (Homo sapiens, UniProt O14791, I384M/S342G)", "50 to 500 nM"),
    ("COc1ccc([C@@H]2C[C@]3(C[C@H](C)N2)OCCc2cc(Cl)sc23)cc1O (racemic)", "APOL1 G1 (Homo sapiens, UniProt O14791, I384M/S342G)", "< 50 nM"),
]

---

- experimental_target: APOL1 G1 (Homo sapiens, UniProt O14791, I384M/S342G)
- assay_procedure: MultiTox-Fluor Multiplex Cytotoxicity Assay, tet-inducible APOL1 G1 T-REx-HEK293 cells
- Assay type: cell-based
- Set-up: expressed in transfected cells; host or cells: T-REx HEK293, clone G1 DC3.25 (pAAVS1-Puro-APOL1 G1)
- assay_conditions: HEK293, Multi-Tox Assay; APOL1 variant (G0/G1/G2) of the HEK293 cells not given; read-out: Multi-Tox Assay IC90

# molecule, IC90
records = [
    ("COc1ccc([C@@H]2C[C@]3(C[C@H](C)N2)OCCc2cc(Cl)sc23)cn1 (racemic)", "< 0.05 µM"),
    ("C[C@H]1C[C@@]2(C[C@@H](c3cn(CC(O)c4ccccc4)nn3)N1)OC[C@@H](O)c1cc(Cl)sc12 (some centres unmarked)", "0.05 to 0.5 µM"),
    ("Cc1coc([C@@H]2C[C@]3(C[C@H](C)N2)OCCc2cc(Cl)sc23)n1 (racemic)", "> 0.5 µM"),
    ("CC1CC2(CC(C(C)C)N1)OCCc1cc(Cl)sc12 (mixture of isomers)", "0.05 to 0.5 µM"),
    ("CC1CC2(CC(c3cnn(C)n3)N1)OCCc1cc(Cl)sc12 (centres unmarked)", "< 0.05 µM"),
    ("Cc1cc([C@@H]2C[C@]3(C[C@H](C)N2)OCCc2cc(Cl)sc23)[nH]n1 (racemic)", "< 0.05 µM"),
    ("Cc1ccccc1C(O)Cn1cc([C@@H]2C[C@]3(C[C@H](C)N2)OC[C@@H](O)c2cc(Cl)sc23)nn1 (some centres unmarked)", "0.05 to 0.5 µM"),
    ("C[C@H]1C[C@@]2(C[C@@H](c3cn(CCC#N)nn3)N1)OC[C@@H](O)c1cc(Cl)sc12", "0.05 to 0.5 µM"),
    ("COCCn1cc([C@@H]2C[C@]3(C[C@H](C)N2)OCCc2cc(Cl)sc23)cn1 (racemic)", "< 0.05 µM"),
    ("C[C@@H]1CC2(C[C@H](C)N1)OCCc1cc(Cl)sc12 (single isomer, unassigned)", "0.05 to 0.5 µM"),
    ("Cc1nccn1CCCn1cc([C@@H]2C[C@]3(C[C@H](C)N2)OC[C@@H](O)c2cc(Cl)sc23)nn1", "0.05 to 0.5 µM"),
    ("C[C@H]1C[C@@]2(C[C@@H](c3cn(Cc4ccc(C#N)nc4)nn3)N1)OC[C@@H](O)c1cc(Cl)sc12", "0.05 to 0.5 µM"),
    ("Cc1ccccc1C(O)Cn1cc([C@@H]2C[C@]3(C[C@H](C)N2)OCC(F)(F)c2cc(Cl)sc23)nn1 (some centres unmarked)", "0.05 to 0.5 µM"),
    ("C[C@H]1C[C@@]2(C[C@@H](c3ccc4cn[nH]c4c3)N1)OCCc1cc(Cl)sc12 (racemic)", "< 0.05 µM"),
    ("CCc1cc2c(s1)C1(C[C@@H](C)N[C@@H](C)C1)OCC2 (single isomer, unassigned)", "0.05 to 0.5 µM"),
    ("Cc1nc([C@@H]2C[C@]3(C[C@H](C)N2)OCCc2cc(Cl)sc23)co1 (racemic)", "0.05 to 0.5 µM"),
    ("Cc1cc(Cn2cc([C@@H]3C[C@]4(C[C@H](C)N3)OCC(F)(F)c3cc(Cl)sc34)nn2)ccn1", "0.05 to 0.5 µM"),
    ("Cc1ccc([C@@H]2C[C@]3(C[C@H](C)N2)OCCc2cc(Cl)sc23)nn1 (racemic)", "< 0.05 µM"),
    ("CCc1cc2c(s1)CCOC21CC(C)NC(c2cn(C)nn2)C1 (single isomer, unassigned)", "< 0.05 µM"),
    ("CC1CC2(CC(c3cc(F)cc(C#N)c3)N1)OCCc1cc(Cl)sc12 (centres unmarked)", "< 0.05 µM"),
    ("C[C@H]1C[C@@]2(C[C@@H](c3cnc(C(N)=O)cn3)N1)OCCc1cc(Cl)sc12 (racemic)", "< 0.05 µM"),
    ("C[C@H]1C[C@@]2(C[C@@H](c3cn(CCC4CCCOC4)nn3)N1)OCC(F)(F)c1cc(Cl)sc12 (some centres unmarked)", "< 0.05 µM"),
    ("C[C@H]1C[C@@]2(C[C@@H](c3cn(Cc4cocn4)nn3)N1)OCC(F)(F)c1cc(Cl)sc12", "0.05 to 0.5 µM"),
    ("COc1ccccc1-c1ncc([C@@H]2C[C@]3(C[C@H](C)N2)OCCc2cc(Cl)sc23)cn1 (racemic)", "0.05 to 0.5 µM"),
    ("CC1COC2(C[C@@H](c3cn(C)nn3)N[C@@H](C)C2)c2cc(Cl)sc21 (single isomer, unassigned)", "< 0.05 µM"),
    ("C[C@H]1C[C@@]2(C[C@@H](c3ccc(O)nn3)N1)OCCc1cc(Cl)sc12", "< 0.05 µM"),
    ("C[C@H]1C[C@@]2(C[C@@H](c3ccc(C(N)=O)cc3)N1)OCCc1cc(Cl)sc12 (racemic)", "< 0.05 µM"),
    ("C[C@H]1C[C@@]2(C[C@@H](c3cn(CCOc4ccccc4F)nn3)N1)OCC(F)(F)c1cc(Cl)sc12", "0.05 to 0.5 µM"),
    ("COCC(O)Cn1cc([C@@H]2C[C@]3(C[C@H](C)N2)OC[C@@H](O)c2cc(Cl)sc23)nn1 (some centres unmarked)", "0.05 to 0.5 µM"),
]
